Target: T1, wild type, full length human TNFR2 (on cells) (human, UniProt P20333 23-461)
T1 construct: whole, on cells; also called hTNFR2; TNFRII
T1 sequence (looked up): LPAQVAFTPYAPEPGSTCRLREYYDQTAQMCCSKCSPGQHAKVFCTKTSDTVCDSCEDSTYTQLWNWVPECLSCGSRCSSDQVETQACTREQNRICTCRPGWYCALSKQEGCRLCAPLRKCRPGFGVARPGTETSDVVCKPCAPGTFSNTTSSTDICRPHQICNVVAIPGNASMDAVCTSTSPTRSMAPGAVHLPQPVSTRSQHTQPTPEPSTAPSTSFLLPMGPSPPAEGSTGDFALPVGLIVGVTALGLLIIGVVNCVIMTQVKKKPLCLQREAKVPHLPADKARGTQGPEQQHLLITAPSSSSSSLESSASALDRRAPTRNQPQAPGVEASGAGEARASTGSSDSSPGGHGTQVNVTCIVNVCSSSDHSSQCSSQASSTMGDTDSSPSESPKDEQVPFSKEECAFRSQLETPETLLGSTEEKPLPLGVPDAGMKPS
Assay: FACS, activated CD4+ T cells
Assay metric: pEC50
Keep in mind that pEC50 stands for -log10 of concentration in molar terms.

Query string: What does the data say about its pEC50? Entry: 001-E06 (antibody, V domains shown, IgG) VH: EVQLLESGGGLVQPGGSLRLSCAASGFTFSSNYMSWVRQAPGKGLEWVALIWYDGSNKYYADSVKGRFTISRDNSKNTLYLQMNSLRAEDTAVYYCAKDPLFDSWGQGTLVTVSS VL: QSVLTQPPSASGTPGQRVTISCTGRSSNIGAGYDVHWYQQLPGTAPKLLIYDNNKRPSGVPDRFSGSKSGTSASLAISGLRSEDEADYYCAAWDDSLNGPVFGGGTKLTVLG
Result string: 8.39

Query string: Give the measured pEC50 of 004-E08 (antibody, V domains shown, IgG) VH: EVQLLESGGGLVQPGGSLRLSCAASGFTFSRYWMHWVRQVPGKGLEWVSGISDSGVVTYYADSVKGRFTISRDNSKNTLYLQMNSLRAEDTAVYYCARAQSVAFDIWGQGTLVTVSS VL: QSVLTQPPSASGTPGQRVTISCSGSSSNIGAGHDVHWYQQLPGTAPKLLIYYDDLLPSGVPDRFSGSKSGTSASLAISGLRSEDEADYYCAAWDDSLSGWVFGGGTKLTVLG .
Result string: 8.64

Query string: Query: pEC50; subject: 005-B02 (antibody, V domains shown, IgG) VH: EVQLLESGGGLVQPGGSLRLSCAASGFTFSDYYMSWIRQAPGKGLEWVALIWYDGGNEYYADSVKGRFTISRDNSKNTLYLQMNSLRAEDTAVYYCVRETGNYGMDVWGQGTLVTVSS VL: QSVLTQPPSASGTPGQRVTISCTGSSSNIGAGYDVHWYQQLPGTAPKLLIYRNNQRPSGVPDRFSGSKSGTSASLAISGLRSEDEADYYCATWDDRVNGPVFGGGTKLTVLG
Result string: 9.10

Query string: Can you look up the measured pEC50 of 001-H10 (antibody, V domains shown, IgG) VH: EVQLLESGGGLVQPGGSLRLSCAASGFTFDDYGMSWVRQAPGKGLEWVSVIYSGGSTYYADSVKGRFTISRDNSKNTLYLQMNSLRAEDTAVYYCARDRSSSWYRDGMDVWGQGTLVTVSS VL: QSVLTQPPSASGTPGQRVTISCTGSSSNIGAGYDVHWYQQLPGTAPKLLIYGNSNRPSGVPDRFSGSKSGTSASLAISGLRSEDEADYYCAAWDDSLSGWVFGGGTKLTVLG for me?
Result string: 8.96

Query string: Give the measured pEC50 of 001-B09 (antibody, V domains shown, IgG) VH: EVQLLESGGGLVQPGGSLRLSCAASGFTFSRHAMNWVRQAPGKGLEWVSSISTGSSYIDYADSVKGRFTISRDNSKNTLYLQMNSLRAEDTAVYYCAREKGHYYYGMDVWGQGTLVTVSS VL: QSVLTQPPSASGTPGQRVTISCTGSSSNIGAGYDVHWYQQLPGTAPKLLIYGNSYRPSGVPDRFSGSKSGTSASLAISGLRSEDEADYYCQSYDTSLSAYVVFGGGTKLTVLG .
Result string: 7.54
